Source: ChEMBL document CHEMBL4251614

- experimentalSystem: Receptor-type tyrosine-protein phosphatase zeta (Homo sapiens)
- Sequence (P23471 whole entry): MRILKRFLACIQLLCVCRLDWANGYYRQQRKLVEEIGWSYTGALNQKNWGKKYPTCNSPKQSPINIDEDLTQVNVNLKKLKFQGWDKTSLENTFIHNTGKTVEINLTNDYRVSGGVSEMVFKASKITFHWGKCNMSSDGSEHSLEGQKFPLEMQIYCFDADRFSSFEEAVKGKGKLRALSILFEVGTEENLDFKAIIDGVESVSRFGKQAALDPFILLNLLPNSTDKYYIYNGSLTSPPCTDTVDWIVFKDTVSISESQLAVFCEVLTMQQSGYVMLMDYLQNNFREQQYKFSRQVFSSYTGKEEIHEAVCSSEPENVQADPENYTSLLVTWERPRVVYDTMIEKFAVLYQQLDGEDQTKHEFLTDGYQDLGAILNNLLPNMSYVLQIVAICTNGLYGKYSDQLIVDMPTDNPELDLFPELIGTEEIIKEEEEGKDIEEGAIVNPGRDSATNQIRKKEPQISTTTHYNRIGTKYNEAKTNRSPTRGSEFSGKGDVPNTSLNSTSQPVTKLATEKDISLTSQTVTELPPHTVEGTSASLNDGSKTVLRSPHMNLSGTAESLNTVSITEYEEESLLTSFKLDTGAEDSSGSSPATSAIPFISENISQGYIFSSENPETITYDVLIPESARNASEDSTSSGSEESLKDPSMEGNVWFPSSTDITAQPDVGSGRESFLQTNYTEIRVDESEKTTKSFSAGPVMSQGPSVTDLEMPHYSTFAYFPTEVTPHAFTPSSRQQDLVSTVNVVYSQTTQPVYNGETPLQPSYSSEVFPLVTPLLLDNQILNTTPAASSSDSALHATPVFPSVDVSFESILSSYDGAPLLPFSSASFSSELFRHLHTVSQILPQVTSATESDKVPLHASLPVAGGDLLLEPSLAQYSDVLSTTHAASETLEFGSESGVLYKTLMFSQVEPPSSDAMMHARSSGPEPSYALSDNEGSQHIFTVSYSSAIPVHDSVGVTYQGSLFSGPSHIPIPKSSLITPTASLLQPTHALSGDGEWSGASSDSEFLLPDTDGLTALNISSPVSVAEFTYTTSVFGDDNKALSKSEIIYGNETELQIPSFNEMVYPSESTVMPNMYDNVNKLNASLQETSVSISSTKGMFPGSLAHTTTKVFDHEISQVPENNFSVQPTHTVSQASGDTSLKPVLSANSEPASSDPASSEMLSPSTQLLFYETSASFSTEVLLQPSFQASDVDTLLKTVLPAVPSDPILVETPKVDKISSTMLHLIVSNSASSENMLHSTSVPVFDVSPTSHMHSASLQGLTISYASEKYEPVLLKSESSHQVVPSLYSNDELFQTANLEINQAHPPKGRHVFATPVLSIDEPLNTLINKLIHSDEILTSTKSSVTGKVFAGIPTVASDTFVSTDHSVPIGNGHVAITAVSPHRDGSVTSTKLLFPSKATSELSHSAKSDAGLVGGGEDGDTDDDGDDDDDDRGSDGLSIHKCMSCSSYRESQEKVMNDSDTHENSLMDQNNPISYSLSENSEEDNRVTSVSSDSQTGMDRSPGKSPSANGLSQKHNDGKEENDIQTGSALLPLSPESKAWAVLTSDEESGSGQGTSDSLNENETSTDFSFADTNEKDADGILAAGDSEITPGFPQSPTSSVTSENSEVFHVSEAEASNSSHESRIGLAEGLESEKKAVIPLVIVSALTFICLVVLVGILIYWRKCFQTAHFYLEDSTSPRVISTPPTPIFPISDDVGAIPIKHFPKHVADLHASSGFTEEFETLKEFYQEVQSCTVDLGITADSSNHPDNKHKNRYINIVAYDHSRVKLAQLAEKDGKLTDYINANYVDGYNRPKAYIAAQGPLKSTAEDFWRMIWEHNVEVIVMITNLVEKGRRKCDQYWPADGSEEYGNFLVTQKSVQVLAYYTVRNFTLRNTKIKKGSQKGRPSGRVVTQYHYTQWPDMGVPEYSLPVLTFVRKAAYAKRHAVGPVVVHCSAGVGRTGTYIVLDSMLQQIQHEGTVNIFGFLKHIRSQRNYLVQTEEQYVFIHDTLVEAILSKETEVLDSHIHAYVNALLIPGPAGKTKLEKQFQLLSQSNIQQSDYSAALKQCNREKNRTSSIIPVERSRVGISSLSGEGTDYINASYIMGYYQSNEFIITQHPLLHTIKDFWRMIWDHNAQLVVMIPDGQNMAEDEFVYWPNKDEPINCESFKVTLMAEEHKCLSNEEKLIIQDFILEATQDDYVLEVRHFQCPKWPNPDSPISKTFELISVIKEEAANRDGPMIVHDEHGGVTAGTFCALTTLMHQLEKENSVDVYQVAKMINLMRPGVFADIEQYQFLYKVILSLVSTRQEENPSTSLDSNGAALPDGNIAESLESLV
- methodSummary: Inhibition of PTPRZ1 (unknown origin) using pNPP as substrate preincubated for 15 mins followed by substrate addition measured after 10 mins by spectrophotometric analysis
reportedEndpoint: pIC50
Friendly reminder that pIC50 comes from taking -log10 of the concentration in mol/L.

Task: Consider the molecule O=S(=O)(c1ccc(COc2ccc(S(=O)(=O)C(F)(F)F)cc2)cc1)C(F)(F)F and give its measured pIC50.
Result: 5.46

---

- methodSummary: Drug level in mouse brain at 60 mg/kg after 1 hr by GC-MS analysis
- Format: ADME, organism-based
- measurementParameters: read-out: Drug uptake
reportedEndpoint: concentration at 1 h

Task: Consider the compound FC(F)(F)Sc1ccc(COc2ccc(SC(F)(F)F)cc2)cc1 and give its measured concentration at 1 h.
Result: 500 to 1000 ng/mL
